- Experiment Notes: in vivo
- Parameters: species or system mice
- Assay Context: male, NOD.Cg-Rag1tm1Mom Il2rgtm1Wjl/SzJ (NRG), mouse, iv, total radioactivity, Biodistribution: Lungs
Where a SMILES comes first, the peptide text is derived from it. Bridges are numbered along the chain shown (N, C = ends). [ ]: non-standard residue; d: D form. The star is where a group is joined. X4 = O=C(O)CN1CCN(CC(=O)O)CCN(CC(=O)N[C@@H](CS(=O)(=O)O)C(=O)NCCCC[C@H](NC(=O)CNC(=O)CCCc2ccc(Cl)cc2)C(=O)*)CCN(CC(=O)O)CC1; 2Nal = N[C@@H](Cc1ccc2ccccc2c1)C(=O)O; Lys(iPr) = CC(C)NCCCC[C@H](N)C(=O)O
Quantity Name: tissue uptake at 3 h

Compound	Quantity Name	Observed Measurement
CC(C)NCCCC[C@H](NC(=O)[C@H]1CCC(=O)N[C@@H](CCCCNC(=O)[C@H](CCCCNC(=O)[C@H](CS(=O)(=O)O)NC(=O)CN2CCN(CC(=O)O)CCN(CC(=O)O)CCN(CC(=O)O)CC2)NC(=O)CNC(=O)CCCc2ccc(Cl)cc2)C(=O)N[C@@H](Cc2ccc(O)cc2)C(=O)N[C@@H](CCCCNC(C)C)C(=O)N[C@H](CCCNC(=N)N)C(=O)N[C@@H](Cc2ccc3ccccc3c2)C(=O)N[C@H](C)C(=O)N1)C(N)=O [[68Ga]Ga-BL34T1, metal not drawn] (K(X4)Y[Lys(iPr)][dR][2Nal][dA][dE][Lys(iPr)]-NH2; lactam N-7)	tissue uptake at 3 h	5.9 %ID/g

----------
Reported tissue uptake at 3 h values for a set of molecules
- Experiment Notes: in vivo
- Set-up: species or system mice
- Assay Context: male, NOD.Cg-Rag1tm1Mom Il2rgtm1Wjl/SzJ (NRG), mouse, iv, total radioactivity, Biodistribution: Stomach
Where a SMILES comes first, the peptide text is derived from it. Bridges are numbered along the chain shown (N, C = ends). [ ]: non-standard residue; d: D form. The star is where a group is joined. X4 = O=C(O)CN1CCN(CC(=O)O)CCN(CC(=O)N[C@@H](CS(=O)(=O)O)C(=O)NCCCC[C@H](NC(=O)CNC(=O)CCCc2ccc(Cl)cc2)C(=O)*)CCN(CC(=O)O)CC1; X3 = O=C(O)CN1CCN(CC(=O)O)CCN(CC(=O)N[C@@H](CS(=O)(=O)O)C(=O)N[C@@H](CCCCNC(=O)CCCc2ccc(Br)cc2)C(=O)*)CCN(CC(=O)O)CC1; X5 = O=C(O)CN1CCN(CC(=O)O)CCN(CC(=O)N[C@@H](CS(=O)(=O)O)C(=O)N[C@@H](CCCCNC(=O)CCCc2ccc(Cl)cc2)C(=O)*)CCN(CC(=O)O)CC1; X1 = O=C(O)CN1CCN(CC(=O)O)CCN(CC(=O)N[C@@H](CS(=O)(=O)O)C(=O)N[C@@H](CCCCNC(=O)CCCc2ccc(I)cc2)C(=O)*)CCN(CC(=O)O)CC1; 2Nal = N[C@@H](Cc1ccc2ccccc2c1)C(=O)O; Lys(iPr) = CC(C)NCCCC[C@H](N)C(=O)O

Molecule	tissue uptake at 3 h (%ID/g)
CC(C)NCCCC[C@H](NC(=O)[C@H]1CCC(=O)N[C@@H](CCCCNC(=O)[C@H](CCCCNC(=O)CCCc2ccc(I)cc2)NC(=O)[C@H](CS(=O)(=O)O)NC(=O)CN2CCN(CC(=O)O)CCN(CC(=O)O)CCN(CC(=O)O)CC2)C(=O)N[C@@H](Cc2ccc(O)cc2)C(=O)N[C@@H](CCCCNC(C)C)C(=O)N[C@H](CCCNC(=N)N)C(=O)N[C@@H](Cc2ccc3ccccc3c2)C(=O)N[C@H](C)C(=O)N1)C(N)=O [[^68Ga]Ga-BL34L11, metal not drawn] (K(X1)Y[Lys(iPr)][dR][2Nal][dA][dE][Lys(iPr)]-NH2; lactam N-7)	0.48
CC(C)NCCCC[C@H](NC(=O)[C@H]1CCC(=O)N[C@@H](CCCCNC(=O)[C@H](CCCCNC(=O)[C@H](CS(=O)(=O)O)NC(=O)CN2CCN(CC(=O)O)CCN(CC(=O)O)CCN(CC(=O)O)CC2)NC(=O)CNC(=O)CCCc2ccc(Cl)cc2)C(=O)N[C@@H](Cc2ccc(O)cc2)C(=O)N[C@@H](CCCCNC(C)C)C(=O)N[C@H](CCCNC(=N)N)C(=O)N[C@@H](Cc2ccc3ccccc3c2)C(=O)N[C@H](C)C(=O)N1)C(N)=O [[68Ga]Ga-BL34T1, metal not drawn] (K(X4)Y[Lys(iPr)][dR][2Nal][dA][dE][Lys(iPr)]-NH2; lactam N-7)	0.44
CC(C)NCCCC[C@H](NC(=O)[C@H]1CCC(=O)N[C@@H](CCCCNC(=O)[C@H](CCCCNC(=O)CCCc2ccc(Br)cc2)NC(=O)[C@H](CS(=O)(=O)O)NC(=O)CN2CCN(CC(=O)O)CCN(CC(=O)O)CCN(CC(=O)O)CC2)C(=O)N[C@@H](Cc2ccc(O)cc2)C(=O)N[C@@H](CCCCNC(C)C)C(=O)N[C@H](CCCNC(=N)N)C(=O)N[C@@H](Cc2ccc3ccccc3c2)C(=O)N[C@H](C)C(=O)N1)C(N)=O [[^177Lu]Lu-BL34L20, metal not drawn] (K(X3)Y[Lys(iPr)][dR][2Nal][dA][dE][Lys(iPr)]-NH2; lactam N-7)	0.71
CC(C)NCCCC[C@H](NC(=O)[C@H]1CCC(=O)N[C@@H](CCCCNC(=O)[C@H](CCCCNC(=O)CCCc2ccc(Cl)cc2)NC(=O)[C@H](CS(=O)(=O)O)NC(=O)CN2CCN(CC(=O)O)CCN(CC(=O)O)CCN(CC(=O)O)CC2)C(=O)N[C@@H](Cc2ccc(O)cc2)C(=O)N[C@@H](CCCCNC(C)C)C(=O)N[C@H](CCCNC(=N)N)C(=O)N[C@@H](Cc2ccc3ccccc3c2)C(=O)N[C@H](C)C(=O)N1)C(N)=O [[^68Ga]Ga-BL34L16, metal not drawn] (K(X5)Y[Lys(iPr)][dR][2Nal][dA][dE][Lys(iPr)]-NH2; lactam N-7)	0.16

----------
- Experiment Notes: in vivo
- Set-up: species or system mice
- Assay Context: male, NOD.Cg-Rag1tm1Momll2rgtm1Wjl/SzJ (NRG), mouse, iv, total radioactivity, Ratio Tumor-to-Pancreas
Where a SMILES comes first, the peptide text is derived from it. Bridges are numbered along the chain shown (N, C = ends). [ ]: non-standard residue; d: D form. The star is where a group is joined. X3 = O=C(O)CN1CCN(CC(=O)O)CCN(CC(=O)N[C@@H](CS(=O)(=O)O)C(=O)N[C@@H](CCCCNC(=O)CCCc2ccc(Br)cc2)C(=O)*)CCN(CC(=O)O)CC1; X1 = O=C(O)CN1CCN(CC(=O)O)CCN(CC(=O)N[C@@H](CS(=O)(=O)O)C(=O)N[C@@H](CCCCNC(=O)CCCc2ccc(I)cc2)C(=O)*)CCN(CC(=O)O)CC1; 2Nal = N[C@@H](Cc1ccc2ccccc2c1)C(=O)O; Lys(iPr) = CC(C)NCCCC[C@H](N)C(=O)O
Quantity Name: tissue to tissue ratio at 120 h

Compound	Quantity Name	Observed Measurement
CC(C)NCCCC[C@H](NC(=O)[C@H]1CCC(=O)N[C@@H](CCCCNC(=O)[C@H](CCCCNC(=O)CCCc2ccc(I)cc2)NC(=O)[C@H](CS(=O)(=O)O)NC(=O)CN2CCN(CC(=O)O)CCN(CC(=O)O)CCN(CC(=O)O)CC2)C(=O)N[C@@H](Cc2ccc(O)cc2)C(=O)N[C@@H](CCCCNC(C)C)C(=O)N[C@H](CCCNC(=N)N)C(=O)N[C@@H](Cc2ccc3ccccc3c2)C(=O)N[C@H](C)C(=O)N1)C(N)=O [[^177Lu]Lu-BL34L11, metal not drawn] (K(X1)Y[Lys(iPr)][dR][2Nal][dA][dE][Lys(iPr)]-NH2; lactam N-7)	tissue to tissue ratio at 120 h	122
CC(C)NCCCC[C@H](NC(=O)[C@H]1CCC(=O)N[C@@H](CCCCNC(=O)[C@H](CCCCNC(=O)CCCc2ccc(Br)cc2)NC(=O)[C@H](CS(=O)(=O)O)NC(=O)CN2CCN(CC(=O)O)CCN(CC(=O)O)CCN(CC(=O)O)CC2)C(=O)N[C@@H](Cc2ccc(O)cc2)C(=O)N[C@@H](CCCCNC(C)C)C(=O)N[C@H](CCCNC(=N)N)C(=O)N[C@@H](Cc2ccc3ccccc3c2)C(=O)N[C@H](C)C(=O)N1)C(N)=O [[^177Lu]Lu-BL34L20, metal not drawn] (K(X3)Y[Lys(iPr)][dR][2Nal][dA][dE][Lys(iPr)]-NH2; lactam N-7)	tissue to tissue ratio at 120 h	257

----------
- Experiment Notes: in vivo
- Set-up: species or system mice
- Assay Context: male, NOD.Cg-Rag1tm1Mom Il2rgtm1Wjl/SzJ (NRG), mouse, iv, total radioactivity, Biodistribution: Blood
Where a SMILES comes first, the peptide text is derived from it. Bridges are numbered along the chain shown (N, C = ends). [ ]: non-standard residue; d: D form. The star is where a group is joined. X4 = O=C(O)CN1CCN(CC(=O)O)CCN(CC(=O)N[C@@H](CS(=O)(=O)O)C(=O)NCCCC[C@H](NC(=O)CNC(=O)CCCc2ccc(Cl)cc2)C(=O)*)CCN(CC(=O)O)CC1; 2Nal = N[C@@H](Cc1ccc2ccccc2c1)C(=O)O; Lys(iPr) = CC(C)NCCCC[C@H](N)C(=O)O

Compound	tissue uptake at 1 h (%ID/g)
CC(C)NCCCC[C@H](NC(=O)[C@@H]1CCSc2c3cccc([N+](=O)[O-])c3cn2[C@@H](CCCCNC(=O)[C@H](CS(=O)(=O)O)NC(=O)CN2CCN(CC(=O)O)CCN(CC(=O)O)CCN(CC(=O)O)CC2)C(=O)CC(Cc2ccc(O)cc2)C(=O)N[C@@H](CCCCNC(C)C)C(=O)N[C@H](CCCNC(=N)N)C(=O)N[C@@H](Cc2ccc3ccccc3c2)C(=O)N[C@H](C)C(=O)N1)C(N)=O (some centres unmarked) [[^68Ga]Ga-3NOPA-BL34L2, metal not drawn]	0.77
CC(C)NCCCC[C@H](NC(=O)[C@H]1CCC(=O)N[C@@H](CCCCNC(=O)[C@H](CCCCNC(=O)[C@H](CS(=O)(=O)O)NC(=O)CN2CCN(CC(=O)O)CCN(CC(=O)O)CCN(CC(=O)O)CC2)NC(=O)CNC(=O)CCCc2ccc(Cl)cc2)C(=O)N[C@@H](Cc2ccc(O)cc2)C(=O)N[C@@H](CCCCNC(C)C)C(=O)N[C@H](CCCNC(=N)N)C(=O)N[C@@H](Cc2ccc3ccccc3c2)C(=O)N[C@H](C)C(=O)N1)C(N)=O [[68Ga]Ga-BL34T1, metal not drawn] (K(X4)Y[Lys(iPr)][dR][2Nal][dA][dE][Lys(iPr)]-NH2; lactam N-7)	13.3
